# Study target: T1, human CD71 extracellular domain (human, UniProt P02786 89-760)
# T1 construct: also called hCD71; CD71-ECD
# T1 sequence (P02786 89-760): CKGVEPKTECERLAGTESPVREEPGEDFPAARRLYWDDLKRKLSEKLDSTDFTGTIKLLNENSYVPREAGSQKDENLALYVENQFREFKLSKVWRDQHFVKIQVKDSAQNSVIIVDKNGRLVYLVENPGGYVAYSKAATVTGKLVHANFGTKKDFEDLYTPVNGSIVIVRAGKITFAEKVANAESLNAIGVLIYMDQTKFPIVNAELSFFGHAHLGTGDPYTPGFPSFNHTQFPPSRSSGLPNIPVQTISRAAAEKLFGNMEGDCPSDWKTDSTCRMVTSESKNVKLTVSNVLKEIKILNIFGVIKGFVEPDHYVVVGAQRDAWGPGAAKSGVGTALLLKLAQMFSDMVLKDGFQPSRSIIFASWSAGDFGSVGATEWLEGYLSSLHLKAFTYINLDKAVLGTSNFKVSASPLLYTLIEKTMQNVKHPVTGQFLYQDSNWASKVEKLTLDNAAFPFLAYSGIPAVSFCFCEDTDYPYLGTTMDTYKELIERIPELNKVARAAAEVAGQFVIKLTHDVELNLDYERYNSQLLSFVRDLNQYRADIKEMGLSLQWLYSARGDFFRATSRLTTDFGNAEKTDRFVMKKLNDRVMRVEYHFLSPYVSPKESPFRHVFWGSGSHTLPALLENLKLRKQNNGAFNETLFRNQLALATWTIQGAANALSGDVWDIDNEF
# Assay explanation: primary ELISA; signal over HSA control
For each of the binders below, state its hCD71:HSA.

Some solved cases for reference:
{"Binder": "CD71-binding FN3 domain SEQ ID NO 374 (designed binder) MLPAPKNLVVSRVTEDSARLSWTAPDAAFDSFYIAYAEPRPDGEAIQLSVPGSERSYDLTGLKPGTEYSVLIHGVKGGLLSSPLHASFTT", "Parameter measured": "hCD71:HSA", "Assay value": "76 ratio"}
{"Binder": "CD71-binding FN3 domain SEQ ID NO 366 (designed binder) MLPAPKNLVVSRVTEDSARLSWTAPDAAFDSFFIGYLEPQPPGEAIDLWVPGSERSYDLTGLKPGTEYNVTIQGVKGGFPSNPLKAQFTT", "Parameter measured": "hCD71:HSA", "Assay value": "213 ratio"}
{"Binder": "CD71-binding FN3 domain SEQ ID NO 410 (designed binder) MLPAPKNLVVSRVTEDSARLSWTAPDAAFDSFFIGYLEPQPPGEAIALWVPGSERSYDLTGLKPGTEYNVTIQGVKGGFPSQPLHAHFTT", "Parameter measured": "hCD71:HSA", "Assay value": "46 ratio"}
{"Binder": "CD71-binding FN3 domain SEQ ID NO 399 (designed binder) MLPAPKNLVVSRVTEDSARLSWTAPDAAFDSFFIGYLEPQPPGEAITLYVPGSERSYDLTGLKPGTEYNVTIQGVKGGFPSTPLTATFTT", "Parameter measured": "hCD71:HSA", "Assay value": "297 ratio"}
{"Binder": "CD71-binding FN3 domain SEQ ID NO 362 (designed binder) MLPAPKNLVVSRVTEDSARLSWTAPDAAFDSFEIAYWENNFNGEAIILIVPGSERSYDLTGLKPGTEYVVFISGVKGGTWSYPLVAQFTT", "Parameter measured": "hCD71:HSA", "Assay value": "47 ratio"}

Need hCD71:HSA for each of these binders.
1. CD71-binding FN3 domain SEQ ID NO 383 (designed binder) MLPAPKNLVVSRVTEDSARLSWTAPDAAFDSFFIGYLEPQPPGEAIDLWVPGSERSYDLTGLKPGTEYNVTIQGVKGGFPSLPLDAVFTT
2. CD71-binding FN3 domain SEQ ID NO 439 (designed binder) MLPAPKNLVVSRVTEDSARLSWTAPDAAFDSFFIGYLEPQPPGEAIHLFVPGSERSYDLTGLKPGTEYNVTIQGVKGGFPSVPLNAYFTT

1: 94 ratio; 2: 215 ratio

Need hCD71:HSA for each of these binders.
1. CD71-binding FN3 domain SEQ ID NO 352 (designed binder) MLPAPKNLVVSRVTEDSARLSWTAPDAAFDSFEIAYQELSLWGEAIVLTVPGSERSYDLTGLKPGTEYYVHIGGVKGGIWSSPLSAIFTT
2. CD71-binding FN3 domain SEQ ID NO 443 (designed binder) MLPAPKNLVVSRVTEDSARLSWTAPDAAFDSFFIGYLEPQPPGEAIELYVPGSERSYDLTGLKPGTEYNVTIQGVKGGFPSDPLHAAFTT

1: 63 ratio; 2: 142 ratio
